Exercise: for every item that follows, state its recorded pIC50.
Test: Tested for inhibition of poly(ADP-ribose) polymerase-1 (PARP-1) in mouse using Cell protection assay
The read-out pIC50 is expressed as -log10 of concentration in moles per litre.

Given Nc1ncnc2c1ncn2C1OC(CNC(=O)CCC(=O)Nc2cccc(-c3ccccc3)c2)[C@@H](O)[C@H]1O (stereo partly specified) , respond with its pIC50. 5.30

Given O=C(CCCCCCC(=O)Nc1cccc2c1CNC2=O)NC[C@H]1OC(n2cnc3c(=O)[nH]cnc32)[C@H](O)[C@@H]1O (stereo partly specified) , respond with its pIC50. 4.17

Given `CCNCC(=O)Nc1cccc2c1CNC2=O` , respond with its pIC50. 4.74

Given `O=C(CN1CCNCC1)Nc1cccc2c1CNC2=O` , respond with its pIC50. 4.74

Given Nc1ncnc2c1ncn2C1O[C@H](CNC(=O)CCCCCCCC(=O)Nc2cccc3c2CNC3=O)[C@@H](O)[C@H]1O (stereo partly specified) , respond with its pIC50. 5.70

Given `CNc1ncnc2c1ncn2CC(=O)Nc1cccc2c1CNC2=O` , respond with its pIC50. 5.52

Given Nc1ncnc2c1ncn2C1O[C@H](CNC(=O)CCCCCC(=O)Nc2cccc3c2CNC3=O)[C@@H](O)[C@H]1O (stereo partly specified) , respond with its pIC50. 5.52

Given O=C1N=Cc2ccccc21 [Isoindol-1-one] , respond with its pIC50. 4.52

====

Assay: Tested for inhibition of poly(ADP-ribose) polymerase-1 (PARP-1) in mouse using Cell protection assay
reported_property: pIC50
The read-out pIC50 is expressed as -log10 of concentration in moles per litre.

Given Nc1cccc2c1CNC2=O [4-Amino-2,3-dihydro-isoindol-1-one] , respond with its pIC50. 4.52

Given `O=C(Cn1cnc2ccccc21)Nc1cccc2c1CNC2=O` , respond with its pIC50. 5.52

Given Nc1ncnc2c1ncn2C1O[C@H](CNC(=O)CCC(=O)Nc2cccc3c2CNC3=O)[C@@H](O)[C@H]1O (some centres undefined) , respond with its pIC50. 7.00

Given Nc1ncnc2c1ncn2C1O[C@H](CNC(=O)CC(=O)Nc2cccc3c2CNC3=O)[C@@H](O)[C@H]1O (some centres undefined) , respond with its pIC50. 5.72

Given `Nc1ncnc2c1ncn2[C@@H]1O[C@H](C(=O)N2CCN(CC(=O)Nc3cccc4c3CNC4=O)CC2)[C@@H](O)[C@H]1O` , respond with its pIC50. 7.35

Given Nc1ncnc2c1ncn2C1O[C@H](CNC(=O)/C=C/c2ccc(C(=O)Nc3cccc4c3CNC4=O)cc2)[C@@H](O)[C@H]1O (some centres undefined) , respond with its pIC50. 5.00

Given Nc1ncnc2c1ncn2C1O[C@H](CNC(=O)CCCCCCC(=O)Nc2cccc3c2CNC3=O)[C@@H](O)[C@H]1O (some centres undefined) , respond with its pIC50. 6.15

====

Test: Tested for inhibition of poly(ADP-ribose) polymerase-1 (PARP-1) in mouse using Cell protection assay
pIC50: −log10 of the molar value.
reported_property: pIC50

Given Nc1ncnc2c1ncn2C1O[C@H](C(=O)N2CCNCC2)[C@@H](O)[C@H]1O (stereo partly drawn) , respond with its pIC50. < 3.52

Given `O=C(CN1CCOCC1)Nc1cccc2c1CNC2=O` , respond with its pIC50. < 4.52

Given `CN1CCN(CC(=O)Nc2cccc3c2CNC3=O)CC1` , respond with its pIC50. < 4.52

These entries and their values trace back to BindingDB's records for doi:10.1016/j.bmcl.2003.10.007.
